Taken from the Human Domainome abundance scans (Beltran et al. 2025).

B1: Gamma-crystallin S, residues 96 to 176; numbered along this chain, P22914 (parent)
chain: IQIFEKGDFSGQMYETTEDCPSIMEQFHMREIHSCKVLEGVWIFYELPNYRGRQYLLDKKEYRKPIDWGAASPAVQSFRRI

Variants of: B1
Assay: abundance fitness (aPCA) (normalised: wild type 0, dead -1); higher = more abundant; growth selection in yeast, the domain comes from the species named
Conditions: Homo sapiens
Response key: Condition met means abundance fitness >= -0.05; Condition not met means abundance fitness < -0.05.

Worked examples follow.
{"VARIANT_KEY": "C35I", "GROUP": "Condition met"}
{"VARIANT_KEY": "R53P", "GROUP": "Condition not met"}
{"VARIANT_KEY": "C35W", "GROUP": "Condition met"}
{"VARIANT_KEY": "D19Q", "GROUP": "Condition met"}
{"VARIANT_KEY": "D58R", "GROUP": "Condition met"}

Ask | Kindly determine if abundance fitness recorded for F27S is above or exactly -0.05.
Reply | Condition met

Ask | Kindly determine if abundance fitness recorded for Q54N is above or exactly -0.05.
Reply | Condition met

Ask | Kindly determine if abundance fitness recorded for F4N is above or exactly -0.05.
Reply | Condition not met

Ask | Kindly determine if abundance fitness recorded for D58E is above or exactly -0.05.
Reply | Condition met

Ask | Kindly determine if abundance fitness recorded for S22N is above or exactly -0.05.
Reply | Condition met

Ask | Kindly determine if abundance fitness recorded for E31P is above or exactly -0.05.
Reply | Condition not met

Ask | Kindly determine if abundance fitness recorded for T16G is above or exactly -0.05.
Reply | Condition met

Ask | Kindly determine if abundance fitness recorded for I3F is above or exactly -0.05.
Reply | Condition met

Ask | Kindly determine if abundance fitness recorded for K60P is above or exactly -0.05.
Reply | Condition not met

Ask | Kindly determine if abundance fitness recorded for Q76L is above or exactly -0.05.
Reply | Condition not met

Ask | Kindly determine if abundance fitness recorded for G69I is above or exactly -0.05.
Reply | Condition met

Ask | Kindly determine if abundance fitness recorded for A71W is above or exactly -0.05.
Reply | Condition met
